- measurement target: Proto-oncogene tyrosine-protein kinase receptor Ret (Homo sapiens, UniProt P07949)
- Sequence (P07949 whole entry): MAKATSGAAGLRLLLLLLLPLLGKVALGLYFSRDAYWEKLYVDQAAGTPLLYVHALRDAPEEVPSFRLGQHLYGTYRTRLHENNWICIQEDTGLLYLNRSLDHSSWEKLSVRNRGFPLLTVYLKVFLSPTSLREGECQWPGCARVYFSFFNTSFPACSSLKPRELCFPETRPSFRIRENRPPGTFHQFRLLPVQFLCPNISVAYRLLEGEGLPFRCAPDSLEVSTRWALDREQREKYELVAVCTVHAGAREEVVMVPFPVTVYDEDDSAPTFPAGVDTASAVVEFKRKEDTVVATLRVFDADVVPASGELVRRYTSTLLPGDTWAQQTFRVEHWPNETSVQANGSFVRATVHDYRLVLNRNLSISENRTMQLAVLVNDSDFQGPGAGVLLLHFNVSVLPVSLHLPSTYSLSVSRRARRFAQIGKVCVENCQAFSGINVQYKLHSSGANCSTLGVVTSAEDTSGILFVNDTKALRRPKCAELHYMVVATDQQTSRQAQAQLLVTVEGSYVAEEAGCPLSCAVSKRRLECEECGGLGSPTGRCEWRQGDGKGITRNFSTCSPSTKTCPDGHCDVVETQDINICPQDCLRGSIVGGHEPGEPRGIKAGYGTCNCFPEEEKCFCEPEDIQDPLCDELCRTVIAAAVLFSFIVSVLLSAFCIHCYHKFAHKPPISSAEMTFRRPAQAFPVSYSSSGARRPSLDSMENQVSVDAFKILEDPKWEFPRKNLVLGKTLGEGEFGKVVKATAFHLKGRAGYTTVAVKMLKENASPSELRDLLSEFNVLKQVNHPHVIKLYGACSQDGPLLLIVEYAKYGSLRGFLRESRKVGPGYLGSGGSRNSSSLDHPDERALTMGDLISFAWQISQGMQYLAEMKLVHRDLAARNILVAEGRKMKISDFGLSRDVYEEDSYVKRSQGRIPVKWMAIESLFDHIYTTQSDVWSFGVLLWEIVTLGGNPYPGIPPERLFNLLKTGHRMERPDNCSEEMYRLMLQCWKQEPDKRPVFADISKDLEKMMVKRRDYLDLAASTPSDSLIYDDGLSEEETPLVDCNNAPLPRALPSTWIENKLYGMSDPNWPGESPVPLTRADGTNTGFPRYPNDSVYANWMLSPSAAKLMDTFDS
- assay details: Inhibition of RET (unknown origin)
measure: pIC50
On this scale, pIC50 is minus log10 of a concentration expressed in M (mol/L).

Lookup: Query: pIC50; subject: "CN1CCN(Cc2ccc(NC(=O)[C@@H]3CCN(c4ccc5ncc(-c6ccccn6)n5n4)C3)cc2C(F)(F)F)CC1"
Found: 8.00

* * *

Parameter IC50, tested on High affinity nerve growth factor receptor (Homo sapiens, UniProt P04629), listed per item.
Sequence (P04629 whole entry): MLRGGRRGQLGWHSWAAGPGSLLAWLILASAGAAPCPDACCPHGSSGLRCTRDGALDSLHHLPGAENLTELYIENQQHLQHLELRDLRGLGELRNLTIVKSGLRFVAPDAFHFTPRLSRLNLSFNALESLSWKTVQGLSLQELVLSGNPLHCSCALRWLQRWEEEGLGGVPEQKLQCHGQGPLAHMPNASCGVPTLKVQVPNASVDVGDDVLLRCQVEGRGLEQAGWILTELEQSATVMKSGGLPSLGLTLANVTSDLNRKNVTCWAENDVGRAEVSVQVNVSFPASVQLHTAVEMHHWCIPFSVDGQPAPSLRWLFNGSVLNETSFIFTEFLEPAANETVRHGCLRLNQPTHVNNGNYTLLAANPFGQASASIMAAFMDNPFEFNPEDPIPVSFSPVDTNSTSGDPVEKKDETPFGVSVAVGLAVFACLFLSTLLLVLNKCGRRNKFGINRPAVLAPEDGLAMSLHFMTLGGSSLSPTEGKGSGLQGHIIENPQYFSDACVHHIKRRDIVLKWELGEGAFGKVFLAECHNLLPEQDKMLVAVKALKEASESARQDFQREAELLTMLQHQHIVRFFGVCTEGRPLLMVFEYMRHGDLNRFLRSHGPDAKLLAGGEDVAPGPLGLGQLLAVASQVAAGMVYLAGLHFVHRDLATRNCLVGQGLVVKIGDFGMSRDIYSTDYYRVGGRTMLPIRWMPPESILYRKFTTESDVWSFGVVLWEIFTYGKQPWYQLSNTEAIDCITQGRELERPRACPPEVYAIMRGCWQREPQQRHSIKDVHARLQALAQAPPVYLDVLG
Number plus unit, in that order.

Lookup: # query: IC50 | item "CN1CCN(Cc2ccc(NC(=O)[C@@H]3CCN(c4ccc5ncc(-c6ccccn6)n5n4)C3)cc2C(F)(F)F)CC1" | system: High affinity nerve growth factor receptor (Homo sapiens, UniProt P04629)
Found: 3.3 nM

Lookup: Could you share what IC50 was measured for "O=C(Nc1ccc(Cl)c(C(F)(F)F)c1)N[C@@H]1CCN(c2ccc3ncc(-c4ccccn4)n3n2)C1" , tested on High affinity nerve growth factor receptor (Homo sapiens, UniProt P04629)?
Found: 45.7 nM

Lookup: Lab note: need IC50 for "CN1CCN(Cc2ccc(NC(=O)[C@@H]3CCN(c4ccc5ncc(-c6cnn(CCO)c6)n5n4)C3)cc2C(F)(F)F)CC1" on High affinity nerve growth factor receptor (Homo sapiens, UniProt P04629), anyone have it?
Found: 8.7 nM

Lookup: Provide value of IC50 for this record tested with High affinity nerve growth factor receptor (Homo sapiens, UniProt P04629): "Cc1conc1NC(=O)N[C@@H]1CCN(c2ccc3ncc(-c4ccccn4)n3n2)C1"
Found: 68.7 nM

Lookup: Fill in the recorded IC50 for this molecule, with High affinity nerve growth factor receptor (Homo sapiens, UniProt P04629) as test system: "CN1CCN(Cc2ccc(NC(=O)[C@@H]3CCN(c4ccc5ncc(-c6ccc(N)nc6)n5n4)C3)cc2C(F)(F)F)CC1"
Found: 6 nM

Lookup: Form field - read-out: IC50; system: High affinity nerve growth factor receptor (Homo sapiens, UniProt P04629); submitted item: "CN1CCN(Cc2ccc(NC(=O)[C@@H]3CCN(c4ccc5ncc(-c6cn[nH]c6)n5n4)C3)cc2C(F)(F)F)CC1"
Found: 5.8 nM

This collection of values is drawn from ChEMBL document CHEMBL5385866.
